biological target: Mitogen-activated protein kinase 10 (Homo sapiens); conditions: at 1 µM
For each of the compounds below, state its residual activity.
Give just the numeric value; % need not be written.

Reported residual activity of `CC(C)(C)c1nc2c3ccc(F)cc3c3c(=O)[nH]ccc3c2[nH]1` : -2

The compound listed as `Cn1c2ccccc2c2c3c(c4c5ccccc5n(CCC#N)c4c21)CNC3=O` has a reported residual activity of 7

Documented residual activity of `O=C1Nc2ccc(Cl)cc2/C1=C/c1cc(Cl)c(O)c(Cl)c1` : 64

Measured residual activity of `O=C(c1ccccc1)c1ccc(N2CCOCC2)cc1O` : 83

Looking up `Nc1n[nH]c2nc3ccccc3nc12` , I found its residual activity recorded as 80

// residual activity lookup, compound = CSc1nc(-c2ccc(F)cc2)c(-c2ccnc(NC(C)c3ccccc3)c2)[nH]1 (stereo unspecified) , result: 4
